test: qHTS for differential inhibitors of proliferation of Plasmodium falciparum line 3D7 (AID 1876)
experimental-conditions: P. falciparum 3D7 proliferation inhibition; series mostly up to 28.7 µM
Results filed as inconclusive are left out. Activity calls are given as the source filed them. Calls come from the whole dose curve; as a rule, active = well fitted curve in the direction sought with a large enough effect; inconclusive = small, poorly fitted or top-dose-only effect, or another doubt; inactive = no such curve, though single readings can be large or run the other way.
// classify into active, inactive

> print(dat)
                                   compound  discrete.label
1  O=c1[nH]c2ccccc2n1C1CCN(CCCC(c2ccc(F)cc2)c2ccc(F)cc2)CC1          active
2   CNCC(O)c1ccc(O)cc1 (stereo unspecified)        inactive
3  O=c1c(O)c(-c2ccc(O)c(O)c2)oc2cc(O)cc(O)c12          active
4  COc1cc2c(c(OC)c1OC)-c1ccc(OC)c(=O)cc1[C@@H](NC(C)=O)CC2          active

Input line: Please share the test call associated with `COc1ccccc1N1CCNCC1` .
Output line: inactive

Input line: How did this test come out for `Cc1nc2n(c(=O)c1CCN1CCC(c3noc4cc(F)ccc34)CC1)CCCC2` ?
Output line: active

----------
target-entity: Estrogen receptor (Homo sapiens)
test: qHTS assay for small molecule agonists of estrogen receptor alpha signaling (AID 588514); note: nearly all actives have a fitted effect of over 70% in size
experimental-conditions: ER-alpha-UAS-bla HEK293, beta-lactamase ratio, 18 h; series mostly up to 76.8 µM
Results filed as inconclusive are left out. Activity calls are given as the source filed them. Calls come from the whole dose curve.
Log the outcome using a class from active, inactive

> print(dat)
                                   molecule  discrete.label
1  C[C@]12C/C(=C/O)C(=O)C[C@@H]1CC[C@@H]1[C@@H]2CC[C@@]2(C)[C@H]1CC[C@]2(C)O          active
2  Clc1ccc(COC(Cn2ccnc2)c2ccc(Cl)cc2Cl)cc1 (configuration not stated)        inactive
3                    c1ccc2c(c1)Nc1ccccc1S2        inactive
4  CCCC(C)(COC(N)=O)COC(=O)NC(C)C (configuration not stated)        inactive
5  CC(C)C(=O)Nc1ccc([N+](=O)[O-])c(C(F)(F)F)c1        inactive
6                        Oc1ccccc1-c1ccccc1        inactive

Note: attention shifts to another entry.
Input line: Call for entry CNCC(O)c1ccc(O)cc1 (configuration not stated) :
Output line: inactive

----------
System: CP262
test: qHTS profiling for inhibitors of Plasmodium falciparum proliferation (AID 504749); note: nearly all actives have a fitted effect of over 60% in size
experimental-conditions: P. falciparum in erythrocytes, SYBR Green DNA, 72 h; series mostly up to 28.7 µM
Records with an inconclusive call do not appear. Active and inactive are the calls of the source. The call rests on the fitted dose curve; in most records, active means well fitted inhibition curve with a large enough effect; inconclusive means small, poorly fitted or top-dose-only effect; inactive means flat fitted curve, though single readings scatter.
Choose one outcome from this list and give only that: active, inactive

Input line: Hi, sorry to bother you, what did the test record for `OCCOc1ccccc1` ?
Output line: inactive

----------
Tested on: CP268
test: qHTS profiling for inhibitors of Plasmodium falciparum proliferation (AID 504749); note: nearly all actives have a fitted effect of over 60% in size
experimental-conditions: P. falciparum in erythrocytes, SYBR Green DNA, 72 h; series mostly up to 28.7 µM
Method: NIH National Institute of Allergy and Infectious Diseases [NIAID] NIH Chemical Genomics Center [NCGC] […] Because mature erythrocytes lack DNA, only Plasmodium-derived DNA is detected. NCGC Assay Protocol Summary: The SYBR Green viability assay was adapted from a method described previously (Plouffe et al., 2008). […] The following morning, fluorescence intensity at 485(14) nm excitation and 535(25) nm emission wavelengths was measured on an EnVision (Perkin Elmer) plate reader. […]
Inconclusive results are not listed. Calls of active or inactive are those of the source. Calls follow the shape of the dose curve; as a rule, active = well fitted inhibition curve with a large enough effect; inconclusive = small, poorly fitted or top-dose-only effect; inactive = flat fitted curve, though single readings scatter.
Can you answer with just one of these options? active, inactive

Record excerpt, results attached:
> print(dat)
                                   compound  discrete.label
1  CCCC(C)(COC(N)=O)COC(=O)NC(C)C (stereo unspecified)        inactive
2       CN1C(=S)CN=C(c2ccccc2)c2cc(Cl)ccc21        inactive
3  Clc1ccc(COC(Cn2ccnc2)c2ccc(Cl)cc2Cl)cc1 (stereo unspecified)          active
4        CCCN1CCC[C@@H]2Cc3[nH]ncc3C[C@H]21        inactive
5  CC(=O)[C@H]1CC[C@H]2[C@@H]3CC[C@H]4C[C@](C)(O)CC[C@]4(C)[C@H]3CC[C@]12C        inactive
6  O=C1NCN(c2ccccc2)C12CCN(CC1COc3ccccc3O1)CC2 (stereo unspecified)        inactive
7               c1ccc(C2CC2)c(OCC2=NCCN2)c1        inactive
8  CC(C)=CC1C(C(=O)OCc2cccc(Oc3ccccc3)c2)C1(C)C (stereo unspecified)        inactive

Input line: Which outcome did this test record for the compound COc1ccc(C(CN(C)C)C2(O)CCCCC2)cc1 (stereo unspecified) ?
Output line: inactive

Input line: Lab log entry: CCC(COC(=O)c1cc(OC)c(OC)c(OC)c1)(c1ccccc1)N(C)C (stereo unspecified) — outcome as called in the assay?
Output line: inactive

Input line: I would be grateful if you could indicate the recorded call for `CC(=O)Nc1cc([As](=O)(O)O)ccc1O` .
Output line: inactive

Data credit: PubChem BioAssay (NCATS)
